Recorded composite z-score, one value per entry.
# testSummary: small-molecule binders of probe aNOTCH3, primary screen, biochemical, small-molecule microarray, 635/667 nm fluorescence (AID 1120);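 note: probe is a biotin-tagged antibody raised against NOTCH3 rather than NOTCH3 protein; score merges spot fluorescence near 667 nm with spot signal to noise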
# conditionsUsed: higher = more signal
Answer with a bare number; do not write a unit.

> print(dat)
                                smilesentry   recordedendpoint  valueobserved
1  COc1ccc(CCNC(=O)[C@@]2(c3ccc([N+](=O)[O-])cc3)CC(=O)N(C(C)C)[C@@H]2c2ccc(CO)cc2)cc1  composite z-score         -0.331
2  COC(=O)C[C@H]1O[C@]2(C(=O)N(C)c3ccccc32)[C@@H](C)[C@@H]1[Si](C)(C)c1ccc(OC)cc1  composite z-score         0.0185
3  C=C(C(=O)CC[C@H](OC(=O)c1ccccc1-c1ccccc1C(=O)O)c1ccc(CO)o1)C(C)C  composite z-score         -0.068

Let us examine a further case.
The value of composite z-score measured for the molecule CO[C@@H]1COC(=O)CC=C[C@H](C)COC(=O)[C@H](Cc2ccccc2)NC(=O)CC=C[C@H]1C turned out to be -0.162

----------
# experimentalTarget: Neurogenic locus notch homolog protein 2 (Homo sapiens)
# testSummary: Notch2 binders on small-molecule microarrays, primary screen, biochemical, small-molecule microarray, 635 nm fluorescence, stem cell growth factors (AID 1073)
# conditionsUsed: Notch2 binding, higher = more signal
If the reported composite z-score equals or exceeds -0.2, assign Yes. If not, assign No.

Worked cases, answers included:
> print(dat)
                                    compound  classlabel
 1  O=C1O[C@@H](c2ccccc2)[C@@H](c2ccccc2)N2[C@@H](c3ccc(O)cc3)[C@]3(C(=O)Nc4ccccc43)[C@@H](C(=O)N3CCN(c4ncccn4)CC3)[C@H]12          No
 2  C=C(COC)/C(=C/C[C@@H](OC(=O)c1ccncc1)c1ccc(OCCO)cc1)c1cc(C(=O)OC)ccc1OC         Yes
 3  C=CCN1C(=O)[C@@]2(Cc3ccccc3)N=C(c3ccc(OCCCO)cc3)O[C@H]2c2ccccc21         Yes
 4  CC(C)(C)OC(=O)CC[C@]1(C(=O)NCCN2CCOCC2)N=C(c2ccc(OCCCO)cc2)O[C@H]1c1ccccc1CN=[N+]=[N-]         Yes
 5  COc1ccc([Si](C)(C)[C@@H]2[C@@H](CCO)O[C@]3(C(=O)N(Cc4ccccc4)c4ccccc43)[C@H]2C)cc1         Yes
 6  CC(=O)NCCCC[C@@H]1NC(=O)[C@@H]2C[C@H](C(=O)NCCCCCCN(C)C)[C@H](c3ccc(O)cc3)N2C1=O         Yes
 7  CO[C@H]1COC(=O)CC=C[C@H](C)[C@@H](OC)COC(=O)[C@H](Cc2ccccc2)NC(=O)CC=C[C@@H]1C          No
 8  Cc1ccc(S(=O)(=O)N[C@H]2COC(=O)CC=C[C@H](C)COC(=O)N[C@@H](C)C(=O)CC=C[C@@H]2C)cc1         Yes
 9  COC(=O)[C@@]1(Cc2ccc(OC)cc2)[C@H]2c3cc(C(=O)N(C)C)n(CCc4ccc(OC)c(Br)c4)c3C[C@H]2CN1C(=O)c1ccccc1         Yes
10  [N-]=[N+]=Nc1ccccc1C[C@@]1(C(=O)N2CCOCC2)N=C(c2ccc(OCCCO)cc2)O[C@@H]1c1ccccc1N=[N+]=[N-]         Yes

Check if composite z-score >= -0.2 (inclusive). Item: O=C/C=C/c1ccccc1Cl
No
